The reported numbers originate from patent US20190112392A1.

Target: T1, human CD20 on cells (human, UniProt P11836 1-297)
T1 construct: whole, on cells; Tumour antigen on the target cells; also called CD20 positive Ramos cells; Ramos cells
T1 sequence (looked up): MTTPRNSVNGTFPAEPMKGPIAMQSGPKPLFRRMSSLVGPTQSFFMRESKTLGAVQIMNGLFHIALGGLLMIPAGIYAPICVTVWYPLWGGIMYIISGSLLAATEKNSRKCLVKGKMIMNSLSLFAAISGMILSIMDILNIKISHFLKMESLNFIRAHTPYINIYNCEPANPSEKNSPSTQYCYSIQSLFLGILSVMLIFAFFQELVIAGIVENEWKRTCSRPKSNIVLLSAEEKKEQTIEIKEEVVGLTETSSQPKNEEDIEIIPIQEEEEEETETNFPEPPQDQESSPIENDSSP
Assay: flow cytometry, Ramos cells
Provide the reported EC50 of each item.
Report as: number unit

Record EC50 for all entries; do not skip any.
1. T017000076 (bispecific antibody, CD20 x TCR bispecific Nanobody construct (cluster A); entry includes the FLAG3-HIS6 tag; also called 20CD019C07-35GS-T0170056G05-FLAG3-HIS6) EVQLVESGGGLVQPGGSLRLSCTFSGGTFSSYTMGWFRQAPGKEREFVAEVRWGGVTTYSNSLKDRFSISEDSVKNAVYLQMNSLKPEDTAVYYCAAVRQMYMTVVPDYWGQGTLVTVSSGGGGSGGGGSGGGGSGGGGSGGGGSGGGGSGGGGSEVQLVESGGGLVQPGGSLRLSCVASGDVHKINFLGWYRQAPGKEREKVAHISIGDQTDYADSAKGRFTISRDESKNMVYLQMNSLKPEDTAVYFCRAFSRIYPYDYWGQGTLVTVSSGAADYKDHDGDYKDHDIDYKDDDDKGAAHHHHHH
2. T017000038 (bispecific antibody, TCR x CD20 bispecific Nanobody construct (cluster C); entry includes the FLAG3-HIS6 tag; also called T0170061G01-35GS-20CD019C07-FLAG3-HIS6) EVQLVESGGGLVQPGGSLRLSCAASGEIGRINFYRWYRQAPGNQREVVATITIADKTDYADSAKGRFTISRDESRNMVYLQMSSLKPEDTAVYFCHAGSRLYPYDYWGQGTLVTVSSGGGGSGGGGSGGGGSGGGGSGGGGSGGGGSGGGGSEVQLVESGGGLVQPGGSLRLSCTFSGGTFSSYTMGWFRQAPGKEREFVAEVRWGGVTTYSNSLKDRFSISEDSVKNAVYLQMNSLKPEDTAVYYCAAVRQMYMTVVPDYWGQGTLVTVSSGAADYKDHDGDYKDHDIDYKDDDDKGAAHHHHHH

-- reply
1.8 nM
21 nM
